Origin of values: PubChem BioAssay AID1963970

# System: 931267-113-T-J1-PDC multicell spheroid viability;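 also: viability read 7 days after compound addition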
# Assay Procedure: Anticancer human tumor 931267-113-T-J1-PDC patient-derived colon adenocarcinoma cell line growth inhibition [PI3K]
# Applied Conditions: second compound 0.1 µM; first compound 0.000316 µM; active compounds read low
I'd be grateful if you could share measured viability, T/C for these entries.
Give bare numbers, in %.

Reference set (2 entries):
CC(=O)c1c(C)c2cnc(Nc3ccc(N4CCNCC4)cn3)nc2n(C2CCCC2)c1=O + COc1c(OCCCN2CCOCC2)ccc2c3n(c(=NC(=O)c4cnc(N)nc4)nc12)CCN3 :: 70.8
Cn1ncnc1[C@H]1c2n[nH]c(=O)c3cc(F)cc(c23)N[C@@H]1c1ccc(F)cc1 + Cc1nc(NC(=O)N2CCCC2C(N)=O)sc1-c1ccnc(C(C)(C)C(F)(F)F)c1 :: 113

Next:
Query the reported viability, T/C for 931267-113-T-J1-PDC multicell spheroid viability; item: CC(C)n1nc(-c2ccc3oc(N)nc3c2)c2c(N)ncnc21 + COc1c(OCCCN2CCOCC2)ccc2c3n(c(=NC(=O)c4cnc(N)nc4)nc12)CCN3
76.5
